Test system: Plasmodium falciparum
Assay: Antimalarial activity: Asexual Blood Stage Plasmodium falciparum Dd2 IC50 (uM)
Type: functional, organism-based
Measured Endpoint: IC50 (µM)
State just the number; it will be interpreted in µM.

Query: What IC50 value was documented for this molecule, `CC(C)(C)CN1C(=O)C(c2ccccc2)(c2ccccc2)N=C1N` ?
Response: 1.5

Query: What IC50 value was documented for this molecule, `Nc1ncc(Br)cc1-c1nc2cc(Cl)cnc2[nH]1` ?
Response: 2.24

Query: What IC50 value was documented for this molecule, CC(C)C(NC(=O)Cc1cccc2ccccc12)C(=O)Nc1cccc(C#N)c1 (configuration not stated) ?
Response: 3.1

Query: What IC50 value was documented for this molecule, `Cc1ccc(NC(=O)c2nc[nH]c2C(=O)Nc2nc3ccccc3[nH]2)c(C)c1` ?
Response: 0.23

Query: What IC50 value was documented for this molecule, `Cc1ccc(Oc2ccc(NC(=O)CNc3ccccc3N3CCCC3=O)cc2)cc1` ?
Response: 0.6

Query: What IC50 value was documented for this molecule, `Nc1nccc2ccc(Oc3ccncc3)cc12` ?
Response: 0.74

Query: What IC50 value was documented for this molecule, `CN(C)c1cc(NC(=O)Nc2ccccc2)c2ccccc2n1` ?
Response: 1.1

Query: What IC50 value was documented for this molecule, CC1CCCN(C(=O)C(C)Nc2cc(Cl)ccc2N2CCOCC2)C1 (configuration not stated) ?
Response: 1.32

Query: What IC50 value was documented for this molecule, `Cc1ccc(S(=O)(=O)n2cc(-c3ccnc(N)c3)c3cc(Br)cnc32)cc1` ?
Response: 1.47

Query: What IC50 value was documented for this molecule, `FC(F)(F)c1cccc(-c2nc3c(NCc4ccncc4)nccc3[nH]2)c1` ?
Response: 0.78

Query: What IC50 value was documented for this molecule, `CN1CCC(NCc2cccc(-c3ccc(S(=O)(=O)NCc4ccccc4)cc3)c2)CC1` ?
Response: 2.06

Query: What IC50 value was documented for this molecule, `COc1cccc(-c2cc3c(Nc4cccnc4)nccc3[nH]2)c1` ?
Response: 2.49

Query: What IC50 value was documented for this molecule, `CC(C)(CN)c1nc(-c2ccc(Cl)c(O)c2)c(-c2ccnc(N)n2)[nH]1` ?
Response: 0.19

Query: What IC50 value was documented for this molecule, O=C(NC1CCN(c2ccnc3ccccc23)C1)c1cccc(C(F)(F)F)c1 (configuration not stated) ?
Response: 0.78

Query: What IC50 value was documented for this molecule, `CCn1cnc2c(Nc3cc(F)cc(F)c3)nc(C#N)nc21` ?
Response: 0.94

Query: What IC50 value was documented for this molecule, `CC(C)NCC(=O)Nc1cccc(C(=O)Nc2cccc(C(F)(F)F)c2)c1` ?
Response: 4.1

Query: What IC50 value was documented for this molecule, `CN1CCN(S(=O)(=O)c2ccc(-c3ccc4c(Nc5ccc6nn[nH]c6c5)ccnc4c3)cc2)CC1` ?
Response: 0.42

Query: What IC50 value was documented for this molecule, `Cc1ccc(S(=O)(=O)N2CCN(C(=O)c3cc(-c4ccccc4)n[nH]3)CC2)cc1` ?
Response: 1.73
